Subject Of Test: Cannabinoid receptor 1 (Mus musculus, UniProt P47746)
Sequence (P47746 whole entry): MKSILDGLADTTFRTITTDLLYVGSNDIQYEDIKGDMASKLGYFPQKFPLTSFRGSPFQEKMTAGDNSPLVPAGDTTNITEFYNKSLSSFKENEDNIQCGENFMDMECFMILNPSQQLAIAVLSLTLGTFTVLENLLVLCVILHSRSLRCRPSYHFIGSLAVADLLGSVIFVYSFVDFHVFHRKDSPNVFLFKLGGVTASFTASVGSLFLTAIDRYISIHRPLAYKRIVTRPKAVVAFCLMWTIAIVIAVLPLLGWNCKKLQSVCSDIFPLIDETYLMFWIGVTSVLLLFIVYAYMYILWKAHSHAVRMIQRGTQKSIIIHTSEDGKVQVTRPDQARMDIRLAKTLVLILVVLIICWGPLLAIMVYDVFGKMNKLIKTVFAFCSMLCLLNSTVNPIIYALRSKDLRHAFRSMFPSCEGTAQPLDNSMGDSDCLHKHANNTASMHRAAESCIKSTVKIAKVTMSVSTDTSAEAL
Assay Overview: Binding affinity towards Cannabinoid receptor 1 was determined using [3H]-CP- cannabinoid as radioligand with mouse brain membrane in the presence of PMSF
Recorded Metric: IC50

CCCCC/C=C\C/C=C\C/C=C\C/C=C\CCCCS(=O)(=O)NCCO :: > 100 µM

This collection of values is drawn from ChEMBL document CHEMBL1136242.
